Tested on: IGROV1 ovarian
Assay: NCI-60 one-dose screen, 48 h
Settings: 10 µM unless noted
About 83,000 compounds went through this panel and 20% of them were active in at least one assay; those are over-represented in the sample as a whole. Active and inactive are the calls of the source. The calls were made as follows: active = growth percent below 10; inactive = the rest.
Allowed answers: active, inactive

Returns: the outcome recorded for O=C(Nc1ccccc1)Oc1ccccc1-c1ccccc1 in this assay. inactive

Test call for this compound, please: CN1CCN(Cc2ccc(NC(=O)c3cncc(C#Cc4cnccc4C(F)(F)F)c3)cc2C(F)(F)F)CC1 inactive

Kindly provide the recorded test outcome for the following compound: O=C(NNc1nc(Cl)nc(N2CCN(C(c3ccccc3)c3ccccc3)CC2)n1)c1ccccc1 active

Give the logged outcome of this assay for the following compound: CN1C2CCC1CN(c1cnc(C(=O)Nc3cc(F)cc4cccnc34)cn1)C2 active

Any idea what this test logged for CCN(CC)CCCC(C)Nc1c2c(nc3ccc(OC)cc13)CCCC2 (stereo not given) ? inactive

Call for entry CN1CCN(C(=O)OCc2nc3c(N4CCOCC4)nc(-c4ccccc4)nc3n2C)CC1 : active

Per the records of this test, what outcome belongs to CC(=O)OCCCCCNc1ccccc1 ? inactive

GET /call?item= CC(=O)c1cccc(NS(=O)(=O)c2cccc(C(=O)Nc3ccc(Br)cc3)c2)c1 returns the recorded outcome of this test. inactive

Lab log entry: COc1cccc(C(Cc2ccccc2)Nc2ccccc2)c1OC (stereo not given) — outcome as called in the assay? inactive

What call does the record list for Cc1cc(C)n(Nc2nc3ccccc3[nH]c2=O)c(=O)c1C#N ? inactive

Could you kindly confirm the outcome this assay logged for NC(=S)N/N=C(\c1ccc(Cl)cc1)C1CC1 ? inactive

Lab log entry: COc1cc(/C=C/C(=O)c2ccc(Nc3ncnc4ccccc34)cc2)cc(OC)c1 — outcome as called in the assay? inactive

Lab log entry: COc1cc(NCCCN(CC(C)C)CC(C)C)c2ncccc2c1 — outcome as called in the assay? inactive

Which outcome was entered for the compound Cn1c(COC(=O)N2CCCCC2)nc2c(N3CCOCC3)nc(-c3ccccc3)nc21 in this test? active

Which outcome did this test record for the compound COc1ccc(NC(=O)c2sc3nc(C)c(C(=O)CCc4cccc(OC)c4)cc3c2N)cc1 ? inactive

Per the assay record, what outcome was assigned to COc1ccc(C(O)c2cc3c(N)c(C(=O)Nc4cccc(OC)c4)sc3nc2C)cc1 (stereo not given) ? inactive

Which outcome did this test record for the compound CC(C)CCSc1nc(NNC(N)=O)c(C#N)c(-c2ccccc2)n1 ? inactive

Record request — test call for N#Cc1c(NC(=O)c2cccc(Br)c2)sc2c1CCCC2 inactive

Hey, what did the test say about COc1cc2nc(-c3ccc(C#N)cc3)[nH]c(=O)c2cc1OC ? inactive

Dear colleague, could you share the recorded outcome for C=C1C(=O)O[C@H]2[C@H]1CC/C(COC(=O)NCCc1c[nH]c3ccc(Cl)cc13)=C\CC[C@@]1(C)O[C@@H]21 when you have a moment? active

# outcome recorded in this test, key = Cc1ccc2[nH]c(=O)cc(-n3nncc3COc3ccc(C=O)cc3)c2c1 inactive

State the result this test recorded for O=C(Nc1cccc(Cl)c1)c1cc(Cl)ccc1O . inactive

What did the test return for S=c1[nH]cccc1-c1nnc2n1Nc1nc3ccccc3cc1CS2 ? inactive

// outcome(item) with item = CCn1ccnc1C(=O)/C=C/c1ccc(CC(=O)Nc2ccc(F)cc2)cc1 inactive

Could you check what this test reported for CN(C)C(=O)OCc1nc2c(N3CCOCC3)nc(-c3ccccc3)nc2n1C ? active

# fetch the recorded call for Cc1ccccc1-c1cc(Cc2ccc(F)cc2)c(=O)[nH]n1 here inactive

Could you kindly confirm the outcome this assay logged for COc1ccc(C2CC(c3cccc(Nc4ccncc4)c3)=NN2c2cc(Cl)cc(Cl)c2)cc1 (stereo not given) ? inactive

// param item: COc1ccc2c(c1)c(CC(=O)NCCOCCOCC(=O)Nc1ccc(OC)c(C(N)=O)c1O)c(C)n2C(=O)c1ccc(Cl)cc1 ; yields the recorded call inactive

Write down the call the test reported for this compound. Item: COc1ccc2c(c1)OC13Oc4cc(OC)ccc4C=C1CCCC3=C2 inactive

Each compound tested received a call. Report the one for COc1cc(NCCN(CC(C)C)C2CCCC2)c2ncccc2c1 . inactive

I'd appreciate the recorded outcome for COc1ccc(-c2cnnc3c(-c4cccc(C(F)(F)F)c4)cnn23)cc1 from this test. inactive

Write down the call the test reported for this compound. Item: COc1cc(OC)cc(C2C3=C(COC3=O)Nc3cc(OC)ccc32)c1 (stereo not given) inactive

Fill in: this test's call for Cc1c([N+](=O)[O-])cc(C(C)(C)C)cc1[N+](=O)[O-] is ___ inactive

Assay outcome for COc1cc2nc(-c3ccc(C(F)(F)F)cc3)cc(OCCCN3CCCCC3)c2cc1OC : what was it? inactive

Returns: the outcome recorded for O=C(Nc1ccc2ncnc(Nc3ccc(Oc4cccc(F)c4)c(Cl)c3)c2c1)c1ccc(CNCCO)cc1 in this assay. active

Data origin, for the record: PubChem BioAssay (NCI)
